# TARGET_OR_TEST_SYSTEM: human M1 receptor (hCHRM1) (Homo sapiens, UniProt P11229)
# Sequence (P11229 whole entry): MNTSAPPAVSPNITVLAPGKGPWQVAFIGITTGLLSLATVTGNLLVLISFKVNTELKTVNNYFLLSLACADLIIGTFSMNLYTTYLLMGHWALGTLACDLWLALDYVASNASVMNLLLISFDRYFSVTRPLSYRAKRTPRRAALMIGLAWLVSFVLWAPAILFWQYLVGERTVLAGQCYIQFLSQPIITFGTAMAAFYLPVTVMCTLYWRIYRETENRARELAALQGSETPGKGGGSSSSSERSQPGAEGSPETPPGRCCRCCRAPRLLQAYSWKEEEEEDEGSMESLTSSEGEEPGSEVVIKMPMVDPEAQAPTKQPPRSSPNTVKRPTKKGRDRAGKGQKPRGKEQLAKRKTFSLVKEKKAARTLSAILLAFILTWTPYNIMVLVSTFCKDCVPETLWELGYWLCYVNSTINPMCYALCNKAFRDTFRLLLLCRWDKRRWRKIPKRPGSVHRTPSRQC
# PROCEDURE_DETAILS: Measurement of M1 receptor positive allosteric modulator (M1PAM) activity, calcium fluorescence (FLIPRtetra) in CHO-K1 cells in the presence of acetylcholine at EC20
# MEASUREMENT_CONDITIONS: inflection point of M1PAM activity, in the presence of acetylcholine at EC20 (final 0.6 nM), CHO-K1 cells expressing hCHRM1; read-out: IP value
QUANTITY_KIND: EC50 (µM)

Cn1ccc(-c2cc(F)c(CN3Cc4ccnc(O[C@H]5CCC[C@@H]5O)c4C3=O)c(F)c2)n1 (relative stereo)	0.0064
Cc1nn(C)cc1-c1ccc(CN2Cc3ncnc(OC4CCC4)c3C2=O)cc1	0.021
Cn1cc(-c2ccc(CN3Cc4ccnc(OCc5ccc(F)cc5F)c4C3=O)cc2)nn1	0.022
Cc1cc(-c2ccc(CN3Cc4ccnc(OCC5CC5)c4C3=O)cc2)ccn1	0.07
O=C1c2c(ccnc2O[C@H]2CCCC[C@@H]2O)CN1Cc1cccs1 (relative stereo)	0.097
Cn1cc(-c2ccc(CN3Cc4cccc(OCC5CCCO5)c4C3=O)cc2)cn1 (stereo not drawn)	0.02
O=C1c2c(ccnc2O[C@H]2CCCC[C@@H]2O)CN1Cc1ccc(Br)s1 (relative stereo)	0.056
CCCc1ccc(Oc2nccc3c2C(=O)N(Cc2ccc(C(N)=O)c(F)c2)C3)c(F)c1	0.045
Cc1cc(C)c(Oc2nccc3c2C(=O)N(Cc2ccc(-c4ccn(C)n4)cc2)C3)c(F)c1	0.069
Cn1cc(-c2ccc(CN3Cc4cccc(Oc5c(F)cccc5C#N)c4C3=O)cn2)cn1	0.063

a = Cc1nn(C)cc1-c1ccc(CN2Cc3ccnc(O[C@H]4CCC[C@@H]4O)c3C2=O)cc1 (relative stereo)
b = Cc1cc(-c2ccc(CN3Cc4ccnc(Oc5ccc(C(C)(C)F)cc5F)c4C3=O)cc2)cnn1
c = O=C1c2c(cccc2O[C@H]2CCCC[C@@H]2O)CN1Cc1ccc(-c2ccnn2C2CCCCO2)cc1 (relative stereo)
List by increasing EC50. List each label, following the requested order.
a, b, c
